Target or system Suppressor of tumorigenicity 14 protein (Homo sapiens, UniProt Q9Y5Y6); metric pKi; compiled from varied reports.
pKi: −log10 of the molar value.
readout: pKi

Some solved cases for reference:
N=C(N)c1cccc(C[C@H](NS(=O)(=O)c2cccc(NC(=O)CCN)c2)C(=O)N2CCC(Cc3ccccc3)CC2)c1 = 7.77
N=C(N)c1ccccc1 = 3.40

P = N=C(N)c1cccc(C[C@H](NS(=O)(=O)c2cccc(NC(=O)CCN)c2)C(=O)N2CCC(NC(=O)Nc3ccccc3)CC2)c1
Q = CC(C)c1cc(C(C)C)c(S(=O)(=O)N[C@@H](Cc2cccc(C(=N)N)c2)C(=O)N2CCC(CCN=C(N)N)CC2)c(C(C)C)c1
For the two items P and Q , which reports the higher pKi value? State your choice using its label.
P

1 = CCOC(=O)Nc1cccc(S(=O)(=O)N[C@@H](Cc2cccc(C(=N)N)c2)C(=O)N2CCC(CCN)CC2)c1
2 = N=C(N)c1cccc(C[C@H](NS(=O)(=O)c2ccc3ccccc3c2)C(=O)N2CCN(C(=O)NCc3ccc(Br)cc3)CC2)c1
3 = N=C(N)c1cccc(C[C@H](NS(=O)(=O)CCc2cccc3ccccc23)C(=O)N2CCN(C(=O)CCN=C(N)N)CC2)c1
4 = N=C(N)c1ccc(Oc2cccc(Oc3ccc(C(=N)N)cc3)n2)cc1
5 = CC(C)c1cc(C(C)C)c(S(=O)(=O)N[C@@H](Cc2cccc(C(=N)N)c2)C(=O)N2CCC(C(=O)NCCN)CC2)c(C(C)C)c1
Provide the items ranked by increasing pKi. Answer with the labels in sequence, matching the requested order.
4, 2, 3, 5, 1

###

Below are pKi values for Suppressor of tumorigenicity 14 protein (Homo sapiens) collected from several publications.
pKi: −log10 of the molar value.
readout: pKi

N=C(N)NCCC[C@H](NC(=O)[C@@H](NC(=O)C(Cc1ccc(O)cc1)NC(=O)CCc1ccccc1)C(c1ccccc1)c1ccccc1)C(=O)c1nc2ccccc2s1 (single isomer, unassigned) = 5.86

A = NCCC(=O)Nc1cccc(S(=O)(=O)N[C@@H](Cc2ccccc2)C(=O)N2CCC(CCN)CC2)c1
B = CNC(=O)CCCC1CCN(C(=O)[C@H](Cc2cccc(C(=N)N)c2)NS(=O)(=O)c2cccc(-c3ccc(Cl)c(Cl)c3)c2)CC1
For the pair A and B , which member has the lower pKi number? Write down the label of the entry you select.
A
(A: 5.00, B: 7.13)

###

system-name: Suppressor of tumorigenicity 14 protein (Homo sapiens)
Sequence (Q9Y5Y6 whole entry): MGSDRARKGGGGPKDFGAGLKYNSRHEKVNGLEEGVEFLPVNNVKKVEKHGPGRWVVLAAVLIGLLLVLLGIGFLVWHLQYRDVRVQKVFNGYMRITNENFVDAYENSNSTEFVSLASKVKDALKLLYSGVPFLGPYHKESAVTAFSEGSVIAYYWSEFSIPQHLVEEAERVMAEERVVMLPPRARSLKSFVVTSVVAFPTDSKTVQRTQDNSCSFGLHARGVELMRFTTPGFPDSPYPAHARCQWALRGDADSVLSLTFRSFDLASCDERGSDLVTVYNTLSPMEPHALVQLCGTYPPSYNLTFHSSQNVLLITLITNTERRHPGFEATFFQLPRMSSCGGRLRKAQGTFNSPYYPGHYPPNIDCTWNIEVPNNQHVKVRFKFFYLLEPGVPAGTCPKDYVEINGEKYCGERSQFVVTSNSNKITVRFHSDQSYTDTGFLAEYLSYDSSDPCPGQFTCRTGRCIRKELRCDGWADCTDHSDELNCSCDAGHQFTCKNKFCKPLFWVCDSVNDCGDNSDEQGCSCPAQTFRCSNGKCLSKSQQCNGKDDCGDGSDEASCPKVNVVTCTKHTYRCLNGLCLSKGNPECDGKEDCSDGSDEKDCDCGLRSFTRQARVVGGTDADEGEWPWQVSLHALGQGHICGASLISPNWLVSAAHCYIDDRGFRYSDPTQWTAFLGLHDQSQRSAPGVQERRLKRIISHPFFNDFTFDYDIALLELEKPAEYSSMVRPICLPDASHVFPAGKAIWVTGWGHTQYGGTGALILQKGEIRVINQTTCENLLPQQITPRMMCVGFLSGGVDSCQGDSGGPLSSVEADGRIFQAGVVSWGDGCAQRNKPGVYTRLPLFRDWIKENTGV
Ki values for Suppressor of tumorigenicity 14 protein (Homo sapiens) compiled from several publications are listed below.
readout: Ki (nM)

CC(C)c1cc(C(C)C)c(S(=O)(=O)N[C@@H](Cc2cccc(C(=N)N)c2)C(=O)N2CCN(C(=O)CCCN)CC2)c(C(C)C)c1 = 140
N=C(N)c1cccc(C[C@H](NS(=O)(=O)c2cccc(NC(=O)CCN)c2)C(=O)N2CCC(CCNC(N)=O)CC2)c1 = 14
COc1ccc(-c2cccc(S(=O)(=O)N[C@@H](Cc3cccc(C(=N)N)c3)C(=O)N3CCC(NC(=O)NC(C)C)CC3)c2)c(OC)c1 = 8
N=C(N)NCCNC(=O)C1CCN(C(=O)[C@H](Cc2cccc(C(=N)N)c2)NS(=O)(=O)c2ccc3c(c2)C(=O)c2ccccc2C3=O)CC1 = 13
Cc1ccc(-c2cccc(S(=O)(=O)N[C@@H](Cc3cccc(C(=N)N)c3)C(=O)N3CCC(NC(=O)NC(C)(C)C)CC3)c2)cc1 = 7

1 = N=C(N)NCCC(=O)N1CCN(C(=O)[C@H](Cc2cccc(C(=N)N)c2)NS(=O)(=O)c2cccc3ccccc23)CC1
2 = COc1ccc(-c2cccc(S(=O)(=O)N[C@@H](Cc3cccc(C(=N)N)c3)C(=O)N3CCN(C(=O)C(C)(C)C)CC3)c2)c(OC)c1
Compare the recorded Ki of 1 and 2 ; state which is larger. Please reply using the label of the selected record.
1
